tgt: T1, Cynomolgus CD73/NT5E Protein (His Tag) (Sino Biological Cat: 90192-C08H-50) (cynomolgus monkey, UniProt A0A2K5V5U7 27-547)
T1 construct: treated as one protein; also called Cynomolgus CD73-His; recombinant cynomolgus monkey CD73; not shown: His tag
T1 sequence: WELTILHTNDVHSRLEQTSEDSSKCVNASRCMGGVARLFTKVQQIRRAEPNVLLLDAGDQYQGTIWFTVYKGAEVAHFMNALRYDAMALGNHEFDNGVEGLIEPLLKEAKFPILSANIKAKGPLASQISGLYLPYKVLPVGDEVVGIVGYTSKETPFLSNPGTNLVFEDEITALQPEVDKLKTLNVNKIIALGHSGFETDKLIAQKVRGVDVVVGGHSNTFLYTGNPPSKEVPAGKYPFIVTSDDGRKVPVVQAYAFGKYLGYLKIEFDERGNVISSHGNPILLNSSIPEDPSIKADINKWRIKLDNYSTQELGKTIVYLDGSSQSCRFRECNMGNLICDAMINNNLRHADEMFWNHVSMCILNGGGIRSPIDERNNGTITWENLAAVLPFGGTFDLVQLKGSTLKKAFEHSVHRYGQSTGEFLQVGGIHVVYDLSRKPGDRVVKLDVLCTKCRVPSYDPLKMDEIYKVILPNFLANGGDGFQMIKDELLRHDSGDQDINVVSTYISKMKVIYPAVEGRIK
testSummary: ForteBio Octet RED384 (BLI), whole IgG on AHQ sensors, 100 nM antigen, 1:1 model
measurementType: Kd (nM)
Just the number in nM, nothing appended.

Examples from the recorded data:
binder="377.C (antibody, V domains shown, also called 377 IgG1 format) VH: EVQLLESGGGLVQPGGSLRLSCAASGFTFKSYAMSWVRQAPGKGLEWVSAISGSGSYTYYADSVKGRFTISRDNSKNTLYLQMNSLRAEDTAVYYCARGGLYGSGSYLSDFDLWGRGTLVTVSS VL: EIVLTQSPATLSVSPGERATLSCRASQSVGSNLAWYQQKPGQAPRLLIYGASTRATGIPARFSGSGSGTEFTLTISSLQSEDFAVYYCQQHNAFPYTFGGGTKVEIK" numericreadout=1.42
binder="350.C (antibody, V domains shown, also called 350 IgG1 format) VH: QVQLQESGPGLVKPSETLSLTCTVSGGSIERYYWSWIRQPPGKGLEWIGYIYGRGSTNYNPSLKSRVTISVDTSKNQFSLKLSSVTAADTAVYYCARESQESPYNNWFDPWGQGTLVTVSS VL: DIQMTQSPSSVSASVGDRVTITCRASQGISSWLAWYQQKPGKAPKLLIYAASSLQSGVPSRFSGSGSGTDFTLTISSLQPEDFATYYCQQGNSFPRTFGGGTKVEIK" numericreadout=0.635
binder="373.C (antibody, V domains shown) VH: EVQLLESGGGLVQPGGSLRLSCAASGFTFHRYAMSWVRQAPGKGLEWVSAISGSGMNTYYADSVKGRFTISRDNSKNTLYLQMNSLRAEDTAVYYCARGGLYGSGSYLSDFDLWGRGTLVTVSS VL: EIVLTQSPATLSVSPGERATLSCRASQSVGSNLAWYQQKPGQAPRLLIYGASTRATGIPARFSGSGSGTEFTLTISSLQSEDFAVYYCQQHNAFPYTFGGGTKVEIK" numericreadout=0.914

Kindly review the next binder as well.
// recorded Kd for 379.C (antibody, V domains shown, also called 379 IgG1 format) VH: EVQLLESGGGLVQPGGSLRLSCAASGFTFSRYAMSWVRQAPGKGLEWVSSISGTGGSTYYADSVKGRFTISRDNSKNTLYLQMNSLRAEDTAVYYCARGGLYGSGSYLSDFDLWGRGTLVTVSS VL: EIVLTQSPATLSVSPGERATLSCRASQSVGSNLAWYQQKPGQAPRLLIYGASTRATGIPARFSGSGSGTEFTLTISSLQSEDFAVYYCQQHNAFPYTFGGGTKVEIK : 1.62
